Tested on: Zymoseptoria tritici
Experiment: Leaf Blotch of Wheat fungicidal activity (SEPTTR)
Type: in vivo
Conditions: 24 h, wheat, high volume, 100 ppm, 1 Day Protectant, read-out: SEPTTR 1DP % Control rating

compound | pest or weed control at 100 ppm
COc1ccnc(C(=O)N[C@@H](C)C(=O)O[C@@H](C)C(Oc2ccc(F)cc2)c2ccc(F)cc2)c1O (stereo partly shown) | > 80%
COc1ccnc(C(=O)N[C@H](C(=O)O[C@@H](C)[C@H](Oc2ccc(C(F)(F)F)cc2)c2ccccc2)C(C)C)c1O | < 0%
COc1ccnc(C(=O)N[C@@H](C)C(=O)O[C@@H](C)[C@H](Oc2cccc(Cl)c2)c2ccccc2)c1O | > 80%
COc1cc(F)ccc1[C@@H](Oc1ccc(C)cc1)[C@H](C)OC(=O)[C@H](C)NC(=O)c1nccc(OC)c1O | > 80%
